Entry source: patent US20090304746A1

- assayed-target: T1, HLA-DR7 (DRB1*0701) (human)
- T1 chain 1: not shown
- T1 chain 2: not shown
- assay-remarks: purified HLA-DR, inhibition of 125I standard peptide, gel filtration
Catalogue of relative binding (IC50 of standard peptide / IC50 of test peptide) readings, one per entry.
The reply should be a number, written without any unit.

GTVLDQAETAGARLV (modifications not checked)    0.0005

Which relative binding (IC50 of standard peptide / IC50 of test peptide) reading was recorded for the binder IDTLTCGFADLMGYI (modifications not checked) ?
0.0003

Note, next up: VVLLFLLLADARVCS (modifications not checked)
0.0033

Note, next up: LHGLSAFSLHSYSPG (modifications not checked)
0.007
